# ASSAY COMMENT: Recovery effect on cachectin/TNF-induced reduction of lipoprotein lipase (LPL) in adipocytes
# Format: cell-based
# MEASUREMENT CONTEXT: mouse, 3t3-l1 cells; read-out: Concentration at which OK exhibits cytotoxicity
VALUE TYPE: MCC (µg/mL)
All answers are understood in µg/mL, so give the number only.

Value lookup for MCC; key = C=C1C(O)C2OC3(CCC(C=CC(C)C4CC(C)=CC5(OC(CC(C)(O)C(=O)O)CCC5O)O4)O3)CCC2OC1C(O)CC(C)C1OC2(CCCCO2)CCC1C (stereo not shown)
0.1

====

# ASSAY COMMENT: Acute toxicity, i.p. injection in BDF1 mouse
# Type: in vivo
# MEASUREMENT CONTEXT: in vivo, ip, 5 weeks old, female, intraperitoneal, read-out: 50% Lethal dose (LD50)
VALUE TYPE: LD50 (mg/kg)
All answers are understood in mg/kg, so give the number only.

Value lookup for LD50; key = C=C1C(O)C2OC3(CCC(C=CC(C)C4CC(C)=CC5(OC(CC(C)(O)C(=O)O)CCC5O)O4)O3)CCC2OC1C(O)CC(C)C1OC2(CCCCO2)CCC1C (stereo not shown) [OK, okadaic acid]
0.16
